biological target: BRD4 (Homo sapiens); experiment: Bromodomain-Containing Protein 4 (BRD4) fluorescence polarization Binding Assay
assay readout: IC50

Req: Supply measured IC50 of CCOc1cc(C)nc(N(CCOC)S(=O)(=O)c2ccc(NCc3c(F)cncc3F)nc2OC)n1 in your reply.
Resp: > 25 µM

###

biological target: hERG (Homo sapiens, UniProt Q12809); assay: hERG ion channel profiling, Qube384 automated patch clamp (standard and extended protocol); assay type: cell-based; details: extended protocol, 1st period, read-out: Ion Channel Extended Protocol IC50 (nM), Period 1st
Sequence (Q12809 whole entry): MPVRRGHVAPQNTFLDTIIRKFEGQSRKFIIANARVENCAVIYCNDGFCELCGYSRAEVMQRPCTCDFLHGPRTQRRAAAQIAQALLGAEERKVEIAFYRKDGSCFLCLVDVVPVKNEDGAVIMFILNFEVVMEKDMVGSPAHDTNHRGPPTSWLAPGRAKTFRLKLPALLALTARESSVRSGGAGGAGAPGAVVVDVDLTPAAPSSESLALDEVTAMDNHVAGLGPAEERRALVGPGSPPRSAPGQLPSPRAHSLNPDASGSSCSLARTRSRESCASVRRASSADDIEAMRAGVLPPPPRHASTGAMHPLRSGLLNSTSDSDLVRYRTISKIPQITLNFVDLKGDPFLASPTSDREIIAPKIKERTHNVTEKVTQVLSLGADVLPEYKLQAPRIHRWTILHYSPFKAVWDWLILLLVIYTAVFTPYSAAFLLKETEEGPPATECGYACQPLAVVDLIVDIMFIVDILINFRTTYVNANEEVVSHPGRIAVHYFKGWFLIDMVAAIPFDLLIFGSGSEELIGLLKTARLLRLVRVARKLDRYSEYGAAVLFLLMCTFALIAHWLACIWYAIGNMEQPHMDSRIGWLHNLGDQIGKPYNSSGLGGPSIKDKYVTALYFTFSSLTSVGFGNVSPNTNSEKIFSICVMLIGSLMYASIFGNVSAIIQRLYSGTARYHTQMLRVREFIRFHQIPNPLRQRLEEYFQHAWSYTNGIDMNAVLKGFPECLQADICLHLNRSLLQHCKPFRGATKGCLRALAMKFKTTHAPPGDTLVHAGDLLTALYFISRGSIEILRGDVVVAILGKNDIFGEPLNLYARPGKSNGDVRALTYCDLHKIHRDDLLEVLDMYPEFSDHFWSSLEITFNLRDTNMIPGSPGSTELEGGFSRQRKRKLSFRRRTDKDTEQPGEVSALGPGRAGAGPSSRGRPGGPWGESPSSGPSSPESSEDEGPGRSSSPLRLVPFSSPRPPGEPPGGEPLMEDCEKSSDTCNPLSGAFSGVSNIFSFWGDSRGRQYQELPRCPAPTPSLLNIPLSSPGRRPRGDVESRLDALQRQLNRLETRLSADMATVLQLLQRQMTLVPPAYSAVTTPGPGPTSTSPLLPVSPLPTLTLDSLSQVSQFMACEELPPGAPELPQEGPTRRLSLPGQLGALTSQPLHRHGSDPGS
assay readout: IC50 (nM)
I only need the number, in nM, no unit after it.

Req: Supply measured IC50 of CCOc1cc(C)nc(N(CCOC)S(=O)(=O)c2ccc(NCc3c(F)cncc3F)nc2OC)n1 in your reply.
Resp: 36500

###

target: Acetylcholinesterase (Homo sapiens, UniProt P22303)
Sequence (P22303 32-614, species assumed): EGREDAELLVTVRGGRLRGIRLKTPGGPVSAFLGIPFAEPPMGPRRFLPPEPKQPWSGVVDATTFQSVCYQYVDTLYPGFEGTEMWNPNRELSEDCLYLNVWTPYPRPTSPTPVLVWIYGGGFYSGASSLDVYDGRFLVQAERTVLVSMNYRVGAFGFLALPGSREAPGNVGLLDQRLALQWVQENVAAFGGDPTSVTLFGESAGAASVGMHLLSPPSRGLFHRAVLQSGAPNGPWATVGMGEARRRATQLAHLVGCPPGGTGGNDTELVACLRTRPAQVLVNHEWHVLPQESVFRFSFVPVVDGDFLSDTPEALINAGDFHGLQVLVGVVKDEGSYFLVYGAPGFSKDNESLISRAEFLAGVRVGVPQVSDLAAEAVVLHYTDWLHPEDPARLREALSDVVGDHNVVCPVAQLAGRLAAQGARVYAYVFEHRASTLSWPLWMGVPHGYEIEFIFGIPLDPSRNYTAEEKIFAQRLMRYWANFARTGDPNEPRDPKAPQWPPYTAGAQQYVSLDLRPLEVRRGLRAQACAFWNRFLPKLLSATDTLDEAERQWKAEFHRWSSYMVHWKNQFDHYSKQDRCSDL
assay readout: IC50

Req: Name the recorded IC50 of CCOc1cc(C)nc(N(CCOC)S(=O)(=O)c2ccc(NCc3c(F)cncc3F)nc2OC)n1 [Compound 1] , assay system Acetylcholinesterase (Homo sapiens, UniProt P22303).
Resp: > 50 µM
